test: Pharmacokinetic test in rats (IV and PO); assay type: in vivo, male SD rats; settings: male, SD, rat; IV 1 mg/kg, single, plasma

# RECORD SMILES, AUC(0-t)
data = [
    ("CC(C)C[C@H](NC(=O)Cn1nc(-c2cccc(OCCN3CCN(c4ccccc4)CC3)c2)cc1-c1ccccc1)B(O)O.Cl", "767 ng·h/mL"),
]

* * *

experiment: Pharmacokinetic test in rats (IV and PO); format: in vivo, male SD rats; settings: male, SD, rat; IV 1 mg/kg, single, plasma
VALUE TYPE: C0 (ng/mL)

# MOLECULE, OBSERVED VALUE
data = [
    ("CC(C)C[C@H](NC(=O)Cn1nc(-c2cccc(OCCN3CCN(c4ccccc4)CC3)c2)cc1-c1ccccc1)B(O)O.Cl [Compound 39]", 846),
]

* * *

tested on: non-small cell lung cancer cell line A549; test: CellTiter-Glo tumor cell proliferation, A549; assay type: cell-based, human; settings: Homo sapiens, A549; CellTiter-Glo, 72 h
Where a name gives a salt, the structure may show the parent alone.

# COMPOUND, TESTED TARGET, IC50 (µM)
records = [
    ("CC(C)C[C@H](NC(=O)Cn1nc(-c2cccc(OS(=O)(=O)c3cccc(C(F)(F)F)c3)c2)cc1-c1ccccc1)B(O)O", "non-small cell lung cancer cell line A549", 1.06),
    ("CC(C)C[C@H](NC(=O)Cn1nc(-c2cccc(OCCCN3CCOCC3)c2)cc1-c1ccccc1)B(O)O [Compound 31, hydrochloride]", "non-small cell lung cancer cell line A549", 2.19),
    ("CC(C)C[C@H](NC(=O)Cn1nc(-c2cccc(O)c2)cc1-c1ccccc1)B(O)O", "non-small cell lung cancer cell line A549", 0.68),
    ("CC(C)C[C@H](NC(=O)Cn1nc(-c2cccc(OCCN(C)C)c2)cc1-c1ccccc1)B(O)O [Compound 29, hydrochloride]", "non-small cell lung cancer cell line A549", 3.64),
    ("CC(C)C[C@H](NC(=O)Cn1nc(-c2cccc(OCCN3CCOCC3)c2)cc1-c1ccccc1)B(O)O.Cl [Compound 30, hydrochloride]", "non-small cell lung cancer cell line A549", 3.05),
]

* * *

experiment: Pharmacokinetic test in rats (IV and PO); type: in vivo, male SD rats; settings: male, SD, rat; PO 10 mg/kg, single, plasma

# RECORD SMILES, MEASUREMENT UNITS, Cmax
data = [
    ("CC(C)C[C@H](NC(=O)Cn1nc(-c2cccc(OCCN3CCN(c4ccccc4)CC3)c2)cc1-c1ccccc1)B(O)O.Cl", "ng/mL", 74.8),
]

* * *

molecular target: 20S proteasome β5 subunit (Homo sapiens, UniProt P20618+P28074); construct: endogenous in cells; experiment: Proteasome-Glo Cell-Based assay in K562 cells, β5 subunit; conditions: 2 h incubation
pIC50: −log10 of the molar value.

# COMPOUND, TESTED TARGET, pIC50
rows = [
    ("CC(C)C[C@H](NC(=O)Cn1nc(-c2cccc(OCCN3CCOCC3)c2)cc1-c1ccccc1)B(O)O.Cl [Compound 30, hydrochloride]", "20S proteasome β5 subunit (Homo sapiens, UniProt P20618+P28074)", 6.40),
    ("CC(C)C[C@H](NC(=O)Cn1nc(-c2cccc(OCCN3CCN(c4ccccc4)CC3)c2)cc1-c1ccccc1)B(O)O.Cl [Compound 39, hydrochloride]", "20S proteasome β5 subunit (Homo sapiens, UniProt P20618+P28074)", 6.70),
]
